Tested on: SFV
Test: microbe, parasite or virus in culture
Type: cell-based, Semliki Forest virus
Settings: 10 µM
In this section, each of the molecules is paired with its reported % inhibition (SFV screen).

[
  {
    "molecule": "CCOC(=O)N1CCN(/[N+]([O-])=N/Oc2ccc([N+](=O)[O-])cc2[N+](=O)[O-])CC1 [JS-K]",
    "% inhibition (SFV screen)": "84.89%"
  },
  {
    "molecule": "Cl.Cl.Fc1ccc(C(OCCN2CCN(CCCc3ccccc3)CC2)c2ccc(F)cc2)cc1 [GBR 12909 dihydrochloride]",
    "% inhibition (SFV screen)": "75.39%"
  },
  {
    "molecule": "O=[N+]([O-])c1ccc2c(c1)S(=O)(=O)C=C2 [Stattic]",
    "% inhibition (SFV screen)": "95.82%"
  },
  {
    "molecule": "C=C1C(=O)O[C@H]2[C@H]1CC/C(C)=C/CC[C@@]1(C)O[C@@H]21 [Parthenolide]",
    "% inhibition (SFV screen)": "98.23%"
  }
]
